Exercise: state measured pIC50 for each of the molecules provided.
target: Lysine-specific histone demethylase 1A (Homo sapiens, UniProt O60341); experiment: Inhibition of recombinant LSD1 (unknown origin) using H3K4me2 as substrate by fluorescence assay
pIC50: −log10 of the molar value.

Some molecules with known pIC50 results, for comparison:
CNCCN(C)c1cc(C)nc2nc(SCc3ccccc3)nn12	< 4.30
Cc1cc(NN)n2ncnc2n1	< 4.30

# batch: return pIC50 for each of the 4 molecules below
1. Cc1cc(NN)n2nc(SCc3cccc4ccccc34)nc2n1
2. Cc1cc(N(C)CCN(C)C)n2nc(SCc3ccccc3)nc2n1
3. Cc1cc(N2CCCC(N)C2)n2nc(SCc3ccccc3)nc2n1 (configuration not stated)
4. Cc1cc(NCCN)n2nc(SCc3ccccc3)nc2n1

< 4.30
< 4.30
< 4.30
< 4.30

Hey, just so you know, these numbers are from ChEMBL document CHEMBL4400535.
